Protocol details: Pharmacokinetics of SR13668 in monkeys after i.v. and oral gavage dosing
Format: in vivo, cynomolgus monkeys (macaca fasicularis)
Cond: male, cynomolgus monkey, plasma, po, 7.02 mg/kg, 84.2 mg/m^2 (7.02 mg/kg) oral gavage, Solutol, seventh daily dose, fed
Quantity measured: Cmax (ng/mL)
Just the number please, in ng/mL, no unit attached.

Reported Cmax of CCOC(=O)c1ccc2[nH]c3c(OC)c4[nH]c5ccc(C(=O)OCC)cc5c4cc3c2c1 : 71.4

---

Protocol details: Solubility of SR13668 in various solvents
Assay type: physicochemical
Cond: 65 °C, organic solvent or mixture, thermodynamic from solid; Gelucire 44/14; 65-70 ° C.; UV
Quantity measured: solubility
Answers without a unit are incomplete; give the number and then its unit.

Reported solubility of CCOC(=O)c1ccc2[nH]c3c(OC)c4[nH]c5ccc(C(=O)OCC)cc5c4cc3c2c1 : 4260 µg/mL

---

Protocol details: Pharmacokinetics of SR13668 in monkeys after i.v. and oral gavage dosing
Type: in vivo, cynomolgus monkeys (macaca fasicularis)
Cond: male, cynomolgus monkey, whole blood, po, 7.02 mg/kg, whole blood, 84.2 mg/m^2 (7.02 mg/kg) oral gavage, PEG400:Labrasol 1:1 v/v, seventh daily dose, fed
Quantity measured: Cmax (ng/mL)
Just the number please, in ng/mL, no unit attached.

Reported Cmax of CCOC(=O)c1ccc2[nH]c3c(OC)c4[nH]c5ccc(C(=O)OCC)cc5c4cc3c2c1 : 129

---

Protocol details: Pharmacokinetics of SR13668 in monkeys after i.v. and oral gavage dosing
Assay type: in vivo, cynomolgus monkeys (macaca fasicularis)
Cond: male, cynomolgus, cynomolgus monkey, whole blood, blood clearance, 84.2 mg/m^2 (7.02 mg/kg) iv, DMSO:PEG300 15:85 v/v, fed
Quantity measured: clearance (mL/min/kg)
Just the number please, in mL/min/kg, no unit attached.

Reported clearance of CCOC(=O)c1ccc2[nH]c3c(OC)c4[nH]c5ccc(C(=O)OCC)cc5c4cc3c2c1 : 3.63

---

Protocol details: Pharmacokinetics of SR13668 in monkeys after i.v. and oral gavage dosing
Assay type: in vivo, cynomolgus monkeys (macaca fasicularis)
Cond: male, cynomolgus monkey, whole blood, po, 7.02 mg/kg, 84.2 mg/m^2 (7.02 mg/kg) oral gavage, Solutol, seventh daily dose, fed
Quantity measured: MRT (h)
Just the number please, in h, no unit attached.

Reported MRT of CCOC(=O)c1ccc2[nH]c3c(OC)c4[nH]c5ccc(C(=O)OCC)cc5c4cc3c2c1 : 13.3

---

Protocol details: Pharmacokinetics of SR13668 in monkeys after i.v. and oral gavage dosing
Type: in vivo, cynomolgus monkeys (macaca fasicularis)
Cond: male, cynomolgus monkey, plasma, iv, 7.02 mg/kg, plasma, 84.2 mg/m^2 (7.02 mg/kg) i.v. single dose, DMSO:PEG300 15:85 v/v, fed
Quantity measured: MRT (h)
Just the number please, in h, no unit attached.

Reported MRT of CCOC(=O)c1ccc2[nH]c3c(OC)c4[nH]c5ccc(C(=O)OCC)cc5c4cc3c2c1 : 6.9

---

Protocol details: Solubility of SR13668 in various solvents
Format: physicochemical
Cond: 65 °C, aqueous with cosolvent or surfactant or cyclodextrin, thermodynamic from solid; Vitamin E TPGS; 65-70 ° C.; UV
Text: The other three systems are similar to the Solutol solutions, but the Solutol is the best candidate having the lowest freezing point (see Table 10) and a high SR13668 solubility (see Table 11). […] Vit E TPGS is water soluble natural-source vitamin E d-alpha tocopheryl polyethyleneglycol succinate, 387 IU/g. Myrj is Polyethylene Glycol (50) Monostearate.
Quantity measured: solubility (µg/mL)
Just the number please, in µg/mL, no unit attached.

Reported solubility of CCOC(=O)c1ccc2[nH]c3c(OC)c4[nH]c5ccc(C(=O)OCC)cc5c4cc3c2c1 [SR13668] : 5500

---

Protocol details: Pharmacokinetics of SR13668 in dogs after i.v. and oral gavage dosing
Format: in vivo, beagle dogs
Cond: male, beagle, dog, whole blood, po, 4.68 mg/kg, dogs; 93.6 mg/m^2 (4.68 mg/kg) oral gavage, Solutol, seventh daily dose; fed
Quantity measured: AUC(0-inf) (µg·h/mL)
Just the number please, in µg·h/mL, no unit attached.

Reported AUC(0-inf) of CCOC(=O)c1ccc2[nH]c3c(OC)c4[nH]c5ccc(C(=O)OCC)cc5c4cc3c2c1 : 3.41

---

Protocol details: Pharmacokinetics of SR13668 in monkeys after i.v. and oral gavage dosing
Assay type: in vivo, cynomolgus monkeys (macaca fasicularis)
Cond: male, cynomolgus, cynomolgus monkey, plasma, iv, 7.02 mg/kg, plasma, 84.2 mg/m^2 (7.02 mg/kg) i.v. single dose, DMSO:PEG300 15:85 v/v, fed
Quantity measured: half-life (h)
Just the number please, in h, no unit attached.

Reported half-life of CCOC(=O)c1ccc2[nH]c3c(OC)c4[nH]c5ccc(C(=O)OCC)cc5c4cc3c2c1 : 7.6

---

Protocol details: Pharmacokinetics of SR13668 in monkeys after i.v. and oral gavage dosing
Assay type: in vivo, cynomolgus monkeys (macaca fasicularis)
Cond: male, cynomolgus monkey, whole blood, po, 28.06 mg/kg, whole blood, 336.7 mg/m^2 (28.06 mg/kg) oral gavage, PEG400:Labrasol 1:1 v/v, seventh daily dose, fed
Method: Four non-naïve male beagle dogs (approximately 3 years of age; Ridglan Farms Inc. Mt. Horeb, Wis.) and four non-naïve male cynomolgus monkeys [cynos (macaca fasicularis); approximately 7 to 8 years of age; Charles River Laboratories, Inc., Houston, Tex.] were used in this study. […] A freshly prepared SR13668 standard curve was analyzed along with samples on each day of analysis. […]
Quantity measured: MRT (h)
Just the number please, in h, no unit attached.

Reported MRT of CCOC(=O)c1ccc2[nH]c3c(OC)c4[nH]c5ccc(C(=O)OCC)cc5c4cc3c2c1 : 10.9

---

Protocol details: Pharmacokinetics of SR13668 in monkeys after i.v. and oral gavage dosing
Assay type: in vivo, cynomolgus monkeys (macaca fasicularis)
Cond: male, cynomolgus monkey, whole blood, po, 7.02 mg/kg, 84.2 mg/m^2 (7.02 mg/kg) oral gavage, Solutol, seventh daily dose, fed
Quantity measured: Tmax (h)
Just the number please, in h, no unit attached.

Reported Tmax of CCOC(=O)c1ccc2[nH]c3c(OC)c4[nH]c5ccc(C(=O)OCC)cc5c4cc3c2c1 : 6.5

---

Protocol details: Pharmacokinetics of SR13668 in monkeys after i.v. and oral gavage dosing
Type: in vivo, cynomolgus monkeys (macaca fasicularis)
Cond: male, cynomolgus monkey, plasma, po, 28.06 mg/kg, plasma, 336.7 mg/m^2 (28.06 mg/kg) oral gavage, PEG400:Labrasol 1:1 v/v, seventh daily dose, fed
Quantity measured: Tmax (h)
Just the number please, in h, no unit attached.

Reported Tmax of CCOC(=O)c1ccc2[nH]c3c(OC)c4[nH]c5ccc(C(=O)OCC)cc5c4cc3c2c1 [SR13668] : 3.5

---

Protocol details: Pharmacokinetics of SR13668 in monkeys after i.v. and oral gavage dosing
Format: in vivo, cynomolgus monkeys (macaca fasicularis)
Cond: male, cynomolgus monkey, whole blood, po, 7.02 mg/kg, whole blood, 84.2 mg/m^2 (7.02 mg/kg) oral gavage, Solutol, seventh daily dose, fed, read-out: CL/F (converted)
Quantity measured: CL/F (mL/min/kg)
Just the number please, in mL/min/kg, no unit attached.

Reported CL/F of CCOC(=O)c1ccc2[nH]c3c(OC)c4[nH]c5ccc(C(=O)OCC)cc5c4cc3c2c1 [SR13668] : 47.7

---

Protocol details: Solubility of SR13668 in various solvents
Format: physicochemical
Cond: 65 °C, organic solvent or mixture, thermodynamic from solid; PEG-1000; 65-70 ° C.; UV
Quantity measured: solubility (µg/mL)
Just the number please, in µg/mL, no unit attached.

Reported solubility of CCOC(=O)c1ccc2[nH]c3c(OC)c4[nH]c5ccc(C(=O)OCC)cc5c4cc3c2c1 [SR13668] : 8150

---

Protocol details: Pharmacokinetics of SR13668 in monkeys after i.v. and oral gavage dosing
Format: in vivo, cynomolgus monkeys (macaca fasicularis)
Cond: male, cynomolgus monkey, whole blood, iv, 7.02 mg/kg, whole blood, 84.2 mg/m^2 (7.02 mg/kg) iv single dose, DMSO:PEG300 15:85 v/v, fed
Quantity measured: Cmax (ng/mL)
Just the number please, in ng/mL, no unit attached.

Reported Cmax of CCOC(=O)c1ccc2[nH]c3c(OC)c4[nH]c5ccc(C(=O)OCC)cc5c4cc3c2c1 : 11100

---

Protocol details: Pharmacokinetics of SR13668 in dogs after i.v. and oral gavage dosing
Format: in vivo, beagle dogs
Cond: male, beagle, dog, whole blood, po, 4.68 mg/kg, dogs; 93.6 mg/m^2 (4.68 mg/kg) oral gavage, Solutol, seventh daily dose; fed
Quantity measured: MRT
Answers without a unit are incomplete; give the number and then its unit.

Reported MRT of CCOC(=O)c1ccc2[nH]c3c(OC)c4[nH]c5ccc(C(=O)OCC)cc5c4cc3c2c1 : 7.2 h
